assay_summary: Cytotoxicity against human HEK293T cells assessed as decrease in cell viability after 72 hrs by CellTiter-Glo reagent based luminescence assay
Set-up: species or system HEK-293T
Can you tell me CC50 at 72 h for the items I'm about to list?

[ask] Item O=c1[nH]c(=O)n([C@H]2C[C@H](O)[C@@H](CO)O2)cc1F [FLOXURIDINE] has what recorded CC50 at 72 h?
[reply] 0.0084 µM

[ask] CC(=O)Oc1ccccc1C(=O)Nc1ncc([N+](=O)[O-])s1 [NITAZOXANIDE] , same question.
[reply] > 40 µM

[ask] Try this molecule next: C/C=C(\CO)C(=O)O[C@H]1[C@H](O)[C@@H](C(=O)OC)O[C@@H]2C[C@H]3O[C@@H](n4cnc5c(N)ncnc54)[C@H](OC)[C@H]3O[C@]21O
[reply] > 40 µM

[ask] Try this molecule too: COC(=O)[C@H]1O[C@@H]2C[C@H]3O[C@@H](n4cnc5c(N)ncnc54)[C@H](OC)[C@H]3O[C@@]2(O)[C@H](O)[C@@H]1O
[reply] > 40 µM

[ask] Also C/C=C(\CO)C(=O)O[C@@H]1[C@@H](C(=O)OC)O[C@@H]2C[C@H]3O[C@@H](n4cnc5c(N)ncnc54)[C@H](OC)[C@H]3O[C@@]2(O)[C@@H]1O , if possible.
[reply] > 40 µM

[ask] Same thing, different molecule: COc1ccc(C[C@H](N)C(=O)N[C@H]2[C@@H](O)[C@H](n3cnc4c(N(C)C)ncnc43)O[C@@H]2CO)cc1 [PUROMYCIN]
[reply] 0.42 µM

###

assay_summary: Cytotoxicity against human HEK293T cells assessed as decrease in cell viability after 72 hrs by CellTiter-Glo reagent based luminescence assay
Design: species or system HEK-293T
observed_property: CC50 at 72 h

[ask] Form field: reported CC50 at 72 h of C/C=C(\C)C(=O)O[C@H]1[C@H](O)[C@@H](C(=O)OC)O[C@@H]2C[C@H]3O[C@@H](n4cnc5c(N)ncnc54)[C@H](O)[C@H]3O[C@]21O
[reply] > 40 µM

[ask] Further, for COC(=O)[C@H]1O[C@@H]2C[C@H]3O[C@@H](n4cnc5c(N)ncnc54)[C@H](O)[C@H]3O[C@@]2(O)[C@@H](O)[C@@H]1O ?
[reply] > 40 µM

[ask] What about COC(=O)[C@H]1O[C@@H]2C[C@H]3O[C@@H](n4cnc5c(N)ncnc54)[C@H](OC)[C@H]3O[C@@]2(O)[C@@H](O)[C@@H]1O ?
[reply] > 40 µM
